Just for reference, patent US20130252930A1 is where these values come from.

# Assayed Target: Cyp21 enzyme (Human HEK 293-Cyp21 stable transfected cells) (Homo sapiens, UniProt P08686)
# Construct: expressed in transfected cells
# Sequence (P08686 whole entry): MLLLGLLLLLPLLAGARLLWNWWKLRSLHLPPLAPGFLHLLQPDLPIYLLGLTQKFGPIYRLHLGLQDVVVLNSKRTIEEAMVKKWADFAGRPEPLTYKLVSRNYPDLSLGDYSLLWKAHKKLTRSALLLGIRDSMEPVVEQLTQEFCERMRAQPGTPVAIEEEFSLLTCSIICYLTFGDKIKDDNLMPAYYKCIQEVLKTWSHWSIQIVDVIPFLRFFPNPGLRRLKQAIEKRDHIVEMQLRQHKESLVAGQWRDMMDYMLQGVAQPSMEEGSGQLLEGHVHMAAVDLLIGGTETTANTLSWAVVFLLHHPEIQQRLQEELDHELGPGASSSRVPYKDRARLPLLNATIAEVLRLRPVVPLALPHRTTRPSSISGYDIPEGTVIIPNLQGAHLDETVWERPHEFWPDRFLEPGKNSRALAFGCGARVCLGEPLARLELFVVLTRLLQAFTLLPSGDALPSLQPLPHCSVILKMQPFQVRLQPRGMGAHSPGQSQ
# Procedure Text: CYP21-HEK293 enzymatic assay (IC50) (Biological Example 11)
# Type: cell-based
# Stated Conditions: HEK 293-Cyp21 cells; read-out: Biological Example No. 11: CYP21-HEK293 enzymatic assay IC50
pIC50: −log10 of the molar value.
Measurement Label: pIC50

These solved cases illustrate the format of a correct answer.
Compound: CC1C[C@H]2C3=CC=C(c4cccnc4)[C@@]3(C)CC[C@@H]2[C@@]2(C)CCC(=O)C=C12 (stereo partly drawn)
Result: > 8.00
--
Compound: C[C@]12CCNC(=O)C=C1C1CC1[C@@H]1[C@@H]2CC[C@]2(C)C(c3cncc(F)c3)=CC[C@@H]12 (stereo partly drawn)
Result: < 6.00
--
Compound: C[C@]12CCC3C(CCC4=CC(=O)CC[C@@]43C)C1=CC=C2c1ccc(F)nc1 (stereo partly drawn)
Result: < 6.00

The compound C[C@]12CCC(=O)C=C1C1CC1[C@@H]1[C@@H]2CC[C@]2(C)C(c3cccnc3)=CC[C@@H]12 (stereo partly drawn) showed pIC50 equal to < 7.00

---

# Assayed Target: CYP17 (human testicular microsome) (Homo sapiens, UniProt P05093)
# Construct: using microsomal fraction from human testis (Celsis Cat #S00110) as the enzyme source; tissue Celsis S00110; host or cells: human testis microsomal fraction
# Sequence (P05093 1-508): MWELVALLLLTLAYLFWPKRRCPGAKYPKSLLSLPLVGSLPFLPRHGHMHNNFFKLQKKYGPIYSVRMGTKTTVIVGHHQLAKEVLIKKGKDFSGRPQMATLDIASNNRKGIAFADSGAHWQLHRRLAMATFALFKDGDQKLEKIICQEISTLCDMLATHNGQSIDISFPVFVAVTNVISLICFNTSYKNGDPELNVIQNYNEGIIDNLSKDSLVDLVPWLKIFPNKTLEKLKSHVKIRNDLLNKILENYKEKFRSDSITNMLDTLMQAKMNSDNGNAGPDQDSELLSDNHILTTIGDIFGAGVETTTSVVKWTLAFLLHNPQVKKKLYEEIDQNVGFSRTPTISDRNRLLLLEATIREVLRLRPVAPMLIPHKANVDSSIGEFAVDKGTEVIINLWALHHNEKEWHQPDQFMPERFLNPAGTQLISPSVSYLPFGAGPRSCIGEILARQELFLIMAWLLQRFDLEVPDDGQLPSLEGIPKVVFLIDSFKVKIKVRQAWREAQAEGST
# Procedure Text: CYP17 enzymatic assay (% inhibition at 1 nM) (Biological Example 12)
# Assay type: biochemical
# Stated Conditions: compound at 1 nM, read-out: CYP17 enzymatic assay % inhibition at 1 nM (Biological Example No. 12)
Measurement Label: inhibition at 0.001 µM

Compound: CC(=O)N[C@@H]1CC[C@@]2(C)C(=CC[C@H]3C4=CC=C(n5ccnc5)[C@@]4(C)CC[C@@H]32)C1
inhibition at 0.001 µM: 10 to 50%
//
Compound: C[C@]12CC[C@@H](NC(=O)C3CC3)CC1=CCC1C2CC[C@]2(C)C(c3cccnc3)=CCC12 (stereo partly drawn)
inhibition at 0.001 µM: > 50%
//
Compound: CC(=O)N[C@@H]1CC[C@@]2(C)C(CCC3C2CC[C@]2(C)C(c4cnccc4C)=CCC32)C1 (stereo partly drawn)
inhibition at 0.001 µM: > 50%
//
Compound: CC(C)(C)c1ccccc1C(=O)O[C@H]1CC[C@@]2(C)C(=CC[C@H]3C4=CC=C(c5cccnc5)[C@@]4(C)CC[C@@H]32)C1
inhibition at 0.001 µM: < 10%
//
Compound: COc1cncc(C2=CCC3C4CCC5C[C@H](NC(C)=O)CC[C@]5(C)C4CC[C@]23C)c1 (stereo partly drawn)
inhibition at 0.001 µM: > 50%

COC1CC[C@@]2(C)C(=CCC3C2CC[C@]2(C)C(c4cncc(C)c4)=CCC32)C1 (stereo partly drawn) yielded inhibition at 0.001 µM of < 10%

Briefly, inhibition at 0.001 µM measured for CC1=C2CCC3C4=CC=C(c5cccnc5)[C@@]4(C)CCC3[C@@]2(C)CCC1O (stereo partly drawn) : < 10%

get_value(item= C[C@@]1(O)CC[C@@]2(C)C(CCC3C4=CC=C(c5cccnc5)[C@@]4(C)CCC32)C1 (stereo partly drawn) , readout=inhibition at 0.001 µM) returns < 10%

Short answer for COC1C[C@H]2[C@@H]3CC=C(n4ccnc4)[C@@]3(C)CC[C@@H]2[C@@]2(C)CCC3CC312 (stereo partly drawn) : inhibition at 0.001 µM was 10 to 50%

// `CCC(=O)N1CCC[C@@]2(C)[C@@H](CC[C@@H]3[C@@H]2CC[C@]2(C)C(n4ccnc4)=CC[C@@H]32)C1` : inhibition at 0.001 µM value = 10 to 50%

For CC1(C)C2=CCC3C4=CC=C(c5cccnc5)[C@@]4(C)CCC3[C@@]2(C)CCC1O (stereo partly drawn) the compound record lists inhibition at 0.001 µM as 10 to 50%

Reported inhibition at 0.001 µM ( CCNC(=O)NC1CC[C@@]2(C)C(=CCC3C2CC[C@]2(C)C(n4ccnc4)=CCC32)C1 (stereo partly drawn) ) = > 50%

The compound identified as `C[C@]12CC[C@@H](NC(=O)c3nccs3)CC1=CC[C@@H]1[C@@H]2CC[C@]2(C)C(c3cccnc3)=CC[C@@H]12` registered its inhibition at 0.001 µM at 10 to 50%

GET /value?item= `C[C@]12CC[C@H](O)C[C@@H]1CC[C@@H]1[C@@H]2CC[C@]2(C)C(n3ccnn3)=CC[C@@H]12` &field=inhibition at 0.001 µM returns > 50%

Memo: C[C@]12CC[C@@H](N)CC1CC[C@@H]1[C@@H]2CC[C@]2(C)C(c3cccnc3)=CC[C@@H]12 (stereo partly drawn) , reported inhibition at 0.001 µM: 10 to 50%
